experiment: TIMS collisional cross section (CCS, N2) of the lipid ion; higher = larger ion cross section; conditions: sample type: HeLa; ionization mode: positive; one isomer drawn
Output y for TIMS collisional cross section not less than 300 Å²; output n otherwise.

Some entries whose results are on file:
>  <Compound>
CCCCCC/C=C\CCCCCCCC(=O)O[C@@H](CO)COC(=O)CCCCCCC/C=C\CCCCCCCCC [DG 19:1_16:1_0:0] (ion (formula + adduct): [C38H70O5+NH4] 1+)

>  <Class Label>
n

$$$$
>  <Compound>
CCCCC/C=C\C/C=C\CCCCCCCCCC(=O)OC[C@@H](COC(=O)CCCCCCCCCCCCC)OC(=O)CCCCCCC/C=C\CCCCCCCC [TG 14:0_18:1_20:2] (ion (formula + adduct): [C55H100O6+NH4] 1+)

>  <Class Label>
y

$$$$
>  <Compound>
CCCCC/C=C\C/C=C\C/C=C\CCCCCCC(=O)OC[C@@H](O)COP(=O)(O)OCCN [LPE 20:3] (ion (formula + adduct): [C25H46NO7P+H] 1+)

>  <Class Label>
n

$$$$

Could you now look at the following compound, please?
*Q* Hello, I need to know if CCCCC/C=C\C/C=C\C/C=C\CCCCCCC(=O)OC[C@@H](O)COP(=O)([O-])OCC[N+](C)(C)C [LPC 20:3] (ion (formula + adduct): [C28H52NO7P+H] 1+) has measured TIMS collisional cross section not below 300 Å². Thanks!
*A* n
